- Target system: Glutamate NMDA receptor
- Assay: In vitro radioligand binding assay for the N-methyl-D-aspartate glutamate receptor is performed using [3H]MK-801 and rat brain membrane suspensions
Counter-ions that a name gives are not always drawn.
Metric name: pKi
Lab note — pKi values are minus log10 of concentrations in M.

# count of solved cases: 5
- Compound: "CCc1cccc(N(C)C(N)=Nc2cccc3ccccc23)c1 [APTIGANEL HYDROCHLORIDE]"
  Target system: "Glutamate NMDA receptor"
  Measured number: 7.54
- Compound: "CCc1cccc(N(C)C(=N)Nc2ccc(Cl)c(Cl)c2)c1"
  Target system: "Glutamate NMDA receptor"
  Measured number: 5.89
- Compound: "CCc1cccc(N(C)C(=N)Nc2cccc(SC)c2)c1"
  Target system: "Glutamate NMDA receptor"
  Measured number: 8.19
- Compound: "CCc1cccc(N(C)C(=N)Nc2ccccc2C(C)C)c1"
  Target system: "Glutamate NMDA receptor"
  Measured number: 6.25
- Compound: "CCc1cccc(NC(=N)Nc2cc(C)cc(CC)c2Cl)c1"
  Target system: "Glutamate NMDA receptor"
  Measured number: 7.11

Glutamate NMDA receptor pKi of CCc1cccc(N(C)C(=N)Nc2ccccc2Cl)c1 is 6.41

The reported pKi value, Glutamate NMDA receptor, for CCc1cccc(N(C)C(=N)Nc2cc(C)cc(CC)c2Cl)c1 reads 7.11

Measured values drawn from ChEMBL document CHEMBL1130271 for this set.
